In this section, each of the compounds is paired with its reported Ki.
# test-name: Displacement of [3H]naltrindole from Opioid receptor delta 1 of guinea pig brain membranes

smiles-notation	op	Ki (nM)
C[C@H]1C2Cc3ccc(C(=O)Nc4ccccc4)cc3[C@@]1(C)CCN2CC1CC1	=	1400
C[C@H]1[C@H]2Cc3ccc(C(N)=O)cc3[C@@]1(C)CCN2CC1CC1	=	2.6
CNC(=O)c1ccc2c(c1)[C@@]1(C)CCN(CC3CC3)C(C2)[C@@H]1C	=	63
C[C@H]1C2Cc3ccc(C(=O)O)cc3[C@@]1(C)CCN2CC1CC1	=	320
C[C@H]1C2Cc3ccc(C(=O)N(C)C)cc3[C@@]1(C)CCN2CC1CC1	>	35000
C[C@@H]1[C@@H]2Cc3ccc(C(N)=O)cc3[C@]1(C)CCN2CC1CC1	=	570
COC(=O)c1ccc2c(c1)[C@@]1(C)CCN(CC3CC3)C(C2)[C@@H]1C	=	59
C[C@H]1C2Cc3ccc(C#N)cc3[C@@]1(C)CCN2CC1CC1	=	2700
